The measured values listed here are drawn from patent US20230149378A1.

# System: hMCSs-BM (Human mesenchymal stem cells from bone marrow)
# method-description: Alamar blue growth inhibition, normal human primary cells
# Type: cell-based
# assay-context: 48 hours
measured-property: IC50

Data request, read-out IC50, for `CSC(=O)C#CC(C)(C)N(C)C`
> 50 µM
